# measured_on: KRAS G12S (Homo sapiens, UniProt P01116, G12S)
# Sequence (P01116 1-188 isoform P01116-2 G12S): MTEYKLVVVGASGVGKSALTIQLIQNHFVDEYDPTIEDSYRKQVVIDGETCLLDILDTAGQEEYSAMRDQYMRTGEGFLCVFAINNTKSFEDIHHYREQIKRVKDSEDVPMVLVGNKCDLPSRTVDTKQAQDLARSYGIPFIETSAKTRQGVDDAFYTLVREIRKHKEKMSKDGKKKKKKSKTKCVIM
# assay_overview: HTRF KRAS-SOS1 interaction assay, KRAS G12S
# study_conditions: binned ≤2 μM / >2 μM, read-out: Inhibition of KRAS G12S (IC50)
pIC50: −log10 of the molar value.
reported_endpoint: pIC50

C#CCC(c1cccnc1N)N1CCOc2c(Cl)c(-c3ccc(F)c4sc(N)c(C#N)c34)c(F)c3nc(OC[C@@]45CCCN4C[C@H](F)C5)nc1c23 (single isomer, unassigned) [Compound 764]: ≥ 5.70
Cc1c(F)c(N)cc(-c2nc3c4c(nc(O[C@@H](C)[C@@H]5CCCN5C)nc4c2F)N([C@H](C)c2cccnc2N)C[C@H](C)O3)c1C(F)(F)F (single isomer, unassigned) [Compound 816]: ≥ 5.70

Let me check: N#Cc1c(N)sc2c(F)ccc(-c3c(C(F)(F)F)c4c5c(nc(OC[C@@]67CCCN6C[C@H](F)C7)nc5c3F)N([C@H](CCC(F)(F)F)c3cc(Cl)cnc3N)CCO4)c12 [Compound 874] , system KRAS G12S (Homo sapiens, UniProt P01116, G12S), measured pIC50 is ≥ 5.70

Let me check: N#Cc1c(N)sc2c(F)ccc(-c3c(Cl)c4c5c(nc(OC[C@@]67CCCN6C[C@H](F)C7)nc5c3F)N(C(/C=C/F)c3cccnc3N)CCO4)c12 (single isomer, unassigned) [Compound 708] , system KRAS G12S (Homo sapiens, UniProt P01116, G12S), measured pIC50 is ≥ 5.70

Let me check: C[C@@H]1COCCN1CC1(COc2nc3c4c(c(C(F)(F)F)c(-c5ccc(F)c6sc(N)c(C#N)c56)c(F)c4n2)OCCN3[C@H](C)c2cccnc2N)CC1 (single isomer, unassigned) [Compound 807] , system KRAS G12S (Homo sapiens, UniProt P01116, G12S), measured pIC50 is < 5.70
